Test system: 282377-053-R-J1-PDC complex spheroids, viability;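 note: spheroids exposed to compounds for 7 days before readout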
protocol: Anticancer human tumor 282377-053-R-J1-PDC patient-derived colon adenocarcinoma cell line growth inhibition [GQUAD]
reported_conditions: curve of first compound; second compound 1 µM
pIC50: −log10 of the molar value.
Threshold check on pIC50: at or above 6 gives true (1), strictly below gives false (0).

compound	assigned_category
COc1cc(C2c3cc4c(cc3C(OC3OC5COC(C)OC5C(O)C3O)C3COC(=O)C23)OCO4)cc(OC)c1O (stereo unspecified) + Cc1cnc(CNC(=O)c2c(=O)c3ccc(N4CCCN(C)CC4)nc3n3c2sc2ccccc23)cn1	false (0)
Cc1[nH]c2ccccc2c1CCNCc1ccc(/C=C/C(=O)NO)cc1 + CN(C)c1ccc(Nc2c3ccc(NC(=O)CCN4CCCC4)cc3nc3cc(NC(=O)CCN4CCCC4)ccc23)cc1	true (1)
CC(=O)O[C@H]1C(=O)[C@@]2(C)[C@H]([C@H](OC(=O)c3ccccc3)[C@]3(O)C[C@H](OC(=O)[C@H](O)[C@@H](NC(=O)c4ccccc4)c4ccccc4)C(C)=C1C3(C)C)[C@]1(OC(C)=O)CO[C@@H]1C[C@@H]2O + Cc1cnc(CNC(=O)c2c(=O)c3ccc(N4CCCN(C)CC4)nc3n3c2sc2ccccc23)cn1	true (1)
CC(C)(O)C1CCC(Nc2ccc3ncc(-c4cccc(C(F)(F)F)c4)n3n2)CC1 (stereo unspecified) + CN(C)c1ccc(Nc2c3ccc(NC(=O)CCN4CCCC4)cc3nc3cc(NC(=O)CCN4CCCC4)ccc23)cc1	false (0)
C=CCn1c(=O)c2cnc(Nc3ccc(N4CCN(C)CC4)cc3)nc2n1-c1cccc(C(C)(C)O)n1 + CN(C)c1ccc(Nc2c3ccc(NC(=O)CCN4CCCC4)cc3nc3cc(NC(=O)CCN4CCCC4)ccc23)cc1	false (0)
CC1COCCN1c1cc(-c2ccnn2C)c2ccnc(-c3ccn[nH]3)c2n1 (stereo unspecified) + Cc1cnc(CNC(=O)c2c(=O)c3ccc(N4CCCN(C)CC4)nc3n3c2sc2ccccc23)cn1	true (1)
COc1cccc2c1C(=O)c1c(O)c3c(c(O)c1C2=O)CC(O)(C(=O)CO)CC3OC1CC(N)C(O)C(C)O1 (stereo unspecified) + CN(C)c1ccc(Nc2c3ccc(NC(=O)CCN4CCCC4)cc3nc3cc(NC(=O)CCN4CCCC4)ccc23)cc1	false (0)
Cn1ncnc1[C@H]1c2n[nH]c(=O)c3cc(F)cc(c23)N[C@@H]1c1ccc(F)cc1 + Cc1cnc(CNC(=O)c2c(=O)c3ccc(N4CCCN(C)CC4)nc3n3c2sc2ccccc23)cn1	true (1)
CC1COCCN1c1cc(C2(O)CC3CCC(C2)O3)c2cnn(-c3ccn[nH]3)c2n1 (stereo unspecified) + Cc1[nH]c2ccc(F)cc2c1-c1nc2c3cccnc3c3ncccc3c2[nH]1	true (1)
COc1ccc([C@@H](O)c2cc(-c3ncnc4cc(N5CCOCC5)ccc34)c(F)cc2Cl)nn1 + CN(C)c1ccc(Nc2c3ccc(NC(=O)CCN4CCCC4)cc3nc3cc(NC(=O)CCN4CCCC4)ccc23)cc1	false (0)
COc1cc(C2c3cc4c(cc3C(OC3OC5COC(C)OC5C(O)C3O)C3COC(=O)C23)OCO4)cc(OC)c1O (stereo unspecified) + Cc1[nH]c2ccc(F)cc2c1-c1nc2c3cccnc3c3ncccc3c2[nH]1	false (0)
CC(C)n1c(=O)n(C)c2cnc3cc(F)c(-c4ccc(OCCCN5CCCCC5)nc4)cc3c21 + Cc1[nH]c2ccc(F)cc2c1-c1nc2c3cccnc3c3ncccc3c2[nH]1	false (0)
CCc1c2c(nc3ccc(O)cc13)-c1cc3c(c(=O)n1C2)COC(=O)[C@]3(O)CC + Cc1cnc(CNC(=O)c2c(=O)c3ccc(N4CCCN(C)CC4)nc3n3c2sc2ccccc23)cn1	true (1)
CC1COCCN1c1cc(C2(O)CC3CCC(C2)O3)c2cnn(-c3ccn[nH]3)c2n1 (stereo unspecified) + CN(C)c1ccc(Nc2c3ccc(NC(=O)CCN4CCCC4)cc3nc3cc(NC(=O)CCN4CCCC4)ccc23)cc1	true (1)
CC[C@@]1(O)C(=O)OCc2c1cc1n(c2=O)Cc2cc3c(CN(C)C)c(O)ccc3nc2-1 + Cc1cnc(CNC(=O)c2c(=O)c3ccc(N4CCCN(C)CC4)nc3n3c2sc2ccccc23)cn1	true (1)
O=C(c1cc(Cc2n[nH]c(=O)c3ccccc23)ccc1F)N1CCN(C(=O)C2CC2)CC1 + Cc1cnc(CNC(=O)c2c(=O)c3ccc(N4CCCN(C)CC4)nc3n3c2sc2ccccc23)cn1	false (0)
Cc1cccc(N(C)C(=O)C2C(O)CCN2c2nc(C)cc(C(F)(F)F)c2C#N)c1 (stereo unspecified) + Cc1cnc(CNC(=O)c2c(=O)c3ccc(N4CCCN(C)CC4)nc3n3c2sc2ccccc23)cn1	false (0)
CC(C)(O)C1CCC(Nc2ccc3ncc(-c4cccc(C(F)(F)F)c4)n3n2)CC1 (stereo unspecified) + Cc1cnc(CNC(=O)c2c(=O)c3ccc(N4CCCN(C)CC4)nc3n3c2sc2ccccc23)cn1	true (1)
CC(C)n1c(=O)n(C)c2cnc3cc(F)c(-c4ccc(OCCCN5CCCCC5)nc4)cc3c21 + Cc1cnc(CNC(=O)c2c(=O)c3ccc(N4CCCN(C)CC4)nc3n3c2sc2ccccc23)cn1	true (1)
C=CC(=O)N1CCN(c2nc(=O)n(-c3c(C)ccnc3C(C)C)c3nc(-c4c(O)cccc4F)c(F)cc23)C(C)C1 (stereo unspecified) + CN(C)c1ccc(Nc2c3ccc(NC(=O)CCN4CCCC4)cc3nc3cc(NC(=O)CCN4CCCC4)ccc23)cc1	false (0)
